target: F protein of hMPV virus strain A2 (human metapneumovirus (hMPV) A2); test: cell-based or functional assay
For each record, check the reported EC50 (nM), plaque reduction, hMPV A2 on Vero cells: if it is below 60 nM write Yes, else write No.

Q) Regarding DEFDKKKIEEVNKKIEESLKKIEESDKKLEEVGSGSGK (N-terminal acetyl (Ac-); C-terminal lysine side chain carries cholesteryl hemisuccinate, K(Chol); C-terminal amide (-NH2)) [Compound 15] , kindly confirm whether its EC50 (nM), plaque reduction, hMPV A2 on Vero cells is beneath 60 nM.
A) Yes

Q) Okay, and WDEFDASISQVNEKINQSLEEIRKSDELLHNVNAGLGSGSGK (N-terminal acetyl (Ac-); C-terminal lysine side chain carries cholesteryl hemisuccinate, K(Chol); C-terminal amide (-NH2)) [Compound 27] ?
A) No

Q) Okay, and SDELVNKKIEFDKKINQSLKKIEESDKKKLEAAAKK (N-terminal acetyl (Ac-); C-terminal amide (-NH2)) [Compound 51] ?
A) Yes

Q) Okay, and DEFDKKIEEVNKKIEESLKKIEESDKKLEEVNEAAAKK (N-terminal acetyl (Ac-); C-terminal lysine side chain carries cholesteryl hemisuccinate, K(Chol); C-terminal amide (-NH2)) [Compound 14] ?
A) Yes

Q) Okay, and DEFDKKKIEEVNKKIEESLKKIEESDKKLEEVGSGSGK (N-terminal acetyl (Ac-); C-terminal lysine side chain carries cholesteryl hemisuccinate, K(Chol); C-terminal amide (-NH2)) [Compound 18] ?
A) Yes

Q) Okay, and SDEFDKKIEEVNKKIEESLKKIEESDKKLGSGSGK (N-terminal acetyl (Ac-); C-terminal lysine side chain carries cholesteryl hemisuccinate, K(Chol); C-terminal amide (-NH2)) [Compound 20] ?
A) Yes

Q) Okay, and YDELVFDASQVNEKINQSLEKIRKSDELLHNVGSGSGK (N-terminal acetyl (Ac-); C-terminal lysine side chain carries cholesteryl hemisuccinate, K(Chol); C-terminal amide (-NH2)) [Compound 25] ?
A) No

Q) Okay, and WDEFDASISQVNEKINQSLEEIRKSDELLHNEAAAKK (N-terminal acetyl (Ac-); C-terminal lysine side chain carries cholesteryl hemisuccinate, K(Chol); C-terminal amide (-NH2)) [Compound 45] ?
A) No

Q) Okay, and FDEEISQVNEKINQSLAFIRKSDELLHNVNAGKSTTEAAAKK (N-terminal acetyl (Ac-); C-terminal lysine side chain carries cholesteryl hemisuccinate, K(Chol); C-terminal amide (-NH2)) [Compound 26] ?
A) No

Q) Okay, and WDEFDASISQVNEKINQSLEEIRKSDELLHNVNALEAAAKK (N-terminal acetyl (Ac-); C-terminal lysine side chain carries cholesteryl hemisuccinate, K(Chol); C-terminal amide (-NH2)) [Compound 38] ?
A) No

Q) Okay, and YDELVFDASQVNEKINQSLEKIRKSDELLHNVEAAAKK (N-terminal acetyl (Ac-); C-terminal lysine side chain carries cholesteryl hemisuccinate, K(Chol); C-terminal amide (-NH2)) [Compound 30] ?
A) No

Q) Okay, and WDEFDASIEEVNRRIEESLRRIEESDRRLEEVEAAAKK (N-terminal acetyl (Ac-); C-terminal lysine side chain carries cholesteryl hemisuccinate, K(Chol); C-terminal amide (-NH2)) [Compound 43] ?
A) Yes
